Sourced from PubChem BioAssay (NCI)

# Test system: K-562 leukemia
# test protocol: NCI tumour cell line growth inhibition, 48 h; in the data active means GI50 below about 0.43 µM; inactive means the rest
Use one of these outcomes when replying: active, inactive

These recorded examples may help you get a feel for the data.
compound	class assignment
O=C1/C=C/[C@@H](O)[C@@H]2C[C@@H](O)C[C@H]2/C=C/CCC[C@H](CCO)O1	active
C=CCc1c(O)c(C(=O)/C=C/c2ccc(Cl)cc2)c(OC)c2ccoc12	inactive
CC(C)[C@@H](C(=O)O[C@@H]1/C=C/C(=O)O[C@@H](C)CCC/C=C/[C@@H]2C[C@H](O)C[C@H]21)N(C)C	inactive

[ask] # lookup: test call for CCOC(=O)C1=C(Nc2ccc(OC)cc2)C(N)=NC1=N
[reply] inactive

[ask] # lookup: test call for CC1=CC2(C)/C=C(C)/C=C\CC(O)/C=C3/C=CC(=C4C(=O)OC2(CC1C)C4=O)OC3 (stereo not drawn)
[reply] inactive

[ask] # lookup: test call for C[C@@H]1CC[C@@H]2[C@@H]1[C@H](OC(=O)/C=C/C1CCCCC1)[C@]1(C3CCCCC3)C[C@@H](OC(=O)CO)[C@@]2(C)O1
[reply] inactive

[ask] # lookup: test call for CCOC(=O)N1CCC(N=C2CSc3nnc(-c4cc(C(F)(F)F)cc(C(F)(F)F)c4)n3N2)CC1
[reply] inactive

[ask] # lookup: test call for Cn1nc(C(F)(F)F)cc1-c1cc(Cl)c(OCc2ccc(Cl)cc2)c(-c2ccc(Cl)c(C(F)(F)F)c2)c1O
[reply] active
